Reference for the values: patent US20240254089A1

# tested-on: human MRGPR X4 (Homo sapiens)
# Construct: expressed in transfected cells
# Sequence (Q96LA9 whole entry): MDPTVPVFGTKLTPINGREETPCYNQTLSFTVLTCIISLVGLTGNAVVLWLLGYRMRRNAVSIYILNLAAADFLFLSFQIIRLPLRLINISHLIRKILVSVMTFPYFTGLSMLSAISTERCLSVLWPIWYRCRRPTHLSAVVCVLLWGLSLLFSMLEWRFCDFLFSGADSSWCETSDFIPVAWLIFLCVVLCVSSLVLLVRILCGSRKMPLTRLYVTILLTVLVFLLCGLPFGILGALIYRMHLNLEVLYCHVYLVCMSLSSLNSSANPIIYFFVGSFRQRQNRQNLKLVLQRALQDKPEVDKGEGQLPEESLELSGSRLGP
# method-notes: MRGPR X4 antagonist activity, IP-One Gq HTRF assay in stably transfected HEK cells
# Format: cell-based
pIC50: −log10 of the molar value.
recorded-endpoint: pIC50

• O=C(NCCc1nnc2ccccn12)c1nn(Cc2ccc(Cl)cc2)c2cc(F)ccc12 = > 7.00
• O=C(NCCc1nnc2ccccn12)c1nn(Cc2cn3cc(Br)ccc3n2)c2ccccc12 = < 5.60
• CCc1nc(CCNC(=O)c2nn(Cc3ccc(Cl)cc3)c3ccccc23)sc1C = 6.00 to 6.30
• O=C(NCCc1c[nH]c2ccccc12)c1nn(Cc2ccc(OC(F)(F)F)cc2)c2ccccc12 = 5.60 to 6.00
• CC(=O)c1ccc(Cn2cc(C(=O)NCCc3cccnc3)c3ccccc32)cc1 = 6.00 to 6.30
• COc1cccc(Cn2nc(C(=O)NCCc3nnc4ccccn34)c3ccccc32)n1 = 5.60 to 6.00
• N#Cc1ccc2c(c1)c(C(=O)NCCc1nnc3ccccn13)nn2Cc1ccc(Cl)cc1 = > 7.00
• Cc1ccc(Cn2nc(C(=O)NCCc3nc4c(s3)CCCC4)c3ccccc32)cc1 = 6.30 to 7.00
• O=C(NCCc1nnc2ccccn12)c1nn(Cc2ccc3c(c2)CCCC3)c2ccccc12 = > 7.00
• O=C(NCCN1CCOCC1)c1nn(Cc2ccc(Cl)cc2)c2ccccc12 = < 5.60
